All figures here come from patent US4279915A.

Each item that follows carries a reported LD50.
- protocol: acute toxicity in Swiss mice
- Format: in vivo, mouse
- study_conditions: mouse, in vivo, ip; Swiss mice, 1 x i.p.
measurement_label: LD50

[[record]]
compound = "CCC12CN3CCc4c([nH]c5ccccc45)[C@@](C(=O)OC)(c4cc5c(cc4OC)N(C=O)[C@H]4[C@@](O)(C(=O)OC)[C@H](OC(C)=O)[C@]6(CC)C=CCN7CC[C@]54[C@@H]76)C[C@@H](C3)C1O2 (stereo partly drawn)"
result = "28.8 mg/kg"

[[record]]
compound = "CC[C@]1(O)C[C@@H]2CN(CCc3c([nH]c4ccccc34)[C@@](C(=O)OC)(c3cc4c(cc3OC)N(C)[C@H]3[C@@](O)(C(=O)OC)[C@H](OC(C)=O)[C@]5(CC)C=CCN6CC[C@]43[C@@H]65)C2)C1"
result = "7.6 mg/kg"

[[record]]
compound = "CC[C@]1(O)C[C@H]2CN(CCc3c([nH]c4ccccc34)[C@@](C(=O)OC)(c3cc4c(cc3OC)N(C=O)[C@H]3[C@@](O)(C(=O)OC)[C@H](OC(C)=O)[C@]5(CC)C=CCN6CC[C@]43[C@@H]65)C2)C1"
result = "4 mg/kg"

